- Assay details: AUC in human at 125 to 500 mg, po QID after 6 hrs
- Type: ADME, organism-based
- Measurement parameters: in vivo

{"columns": ["Sample smiles", "AUC at 6 h [µM·h]"],
 "data": [
  ["Cc1onc(-c2c(Cl)cccc2Cl)c1C(=O)N[C@@H]1C(=O)N2[C@@H]1SC(C)(C)[C@@H]2C(=O)O", 168]
]}

----------
- Assay details: Drug concentration at steady state in human at 0.25 to 20 mg, po QD after 24 hrs
- Format: ADME, organism-based
- Measurement parameters: in vivo, read-out: Css

{"columns": ["Sample smiles", "concentration at 24 h (nM)"],
 "data": [
  ["CO[C@H]1C[C@@H]2CC[C@@H](C)[C@@](O)(O2)C(=O)C(=O)N2CCCC[C@H]2C(=O)O[C@H]([C@H](C)C[C@@H]2CC[C@@H](OCCO)[C@H](OC)C2)CC(=O)[C@H](C)/C=C(\\C)[C@@H](O)[C@@H](OC)C(=O)[C@H](C)C[C@H](C)/C=C/C=C/C=C/1C", 23]
]}

----------
- Assay details: Drug concentration at steady state in human at 43 to 130 mg, po QD after 24 hrs
- Type: ADME, organism-based
- Measurement parameters: in vivo, read-out: Css

{"columns": ["Compound", "Unit spec", "concentration at 24 h"],
 "data": [
  ["CC(C)OC(=O)C(C)(C)Oc1ccc(C(=O)c2ccc(Cl)cc2)cc1 [FENOFIBRATE]", "µM", 14.9]
]}

----------
The entries below are paired with their reported pIC50.
- Measurement target: Bile salt export pump (Homo sapiens, UniProt O95342)
- Sequence (O95342 whole entry): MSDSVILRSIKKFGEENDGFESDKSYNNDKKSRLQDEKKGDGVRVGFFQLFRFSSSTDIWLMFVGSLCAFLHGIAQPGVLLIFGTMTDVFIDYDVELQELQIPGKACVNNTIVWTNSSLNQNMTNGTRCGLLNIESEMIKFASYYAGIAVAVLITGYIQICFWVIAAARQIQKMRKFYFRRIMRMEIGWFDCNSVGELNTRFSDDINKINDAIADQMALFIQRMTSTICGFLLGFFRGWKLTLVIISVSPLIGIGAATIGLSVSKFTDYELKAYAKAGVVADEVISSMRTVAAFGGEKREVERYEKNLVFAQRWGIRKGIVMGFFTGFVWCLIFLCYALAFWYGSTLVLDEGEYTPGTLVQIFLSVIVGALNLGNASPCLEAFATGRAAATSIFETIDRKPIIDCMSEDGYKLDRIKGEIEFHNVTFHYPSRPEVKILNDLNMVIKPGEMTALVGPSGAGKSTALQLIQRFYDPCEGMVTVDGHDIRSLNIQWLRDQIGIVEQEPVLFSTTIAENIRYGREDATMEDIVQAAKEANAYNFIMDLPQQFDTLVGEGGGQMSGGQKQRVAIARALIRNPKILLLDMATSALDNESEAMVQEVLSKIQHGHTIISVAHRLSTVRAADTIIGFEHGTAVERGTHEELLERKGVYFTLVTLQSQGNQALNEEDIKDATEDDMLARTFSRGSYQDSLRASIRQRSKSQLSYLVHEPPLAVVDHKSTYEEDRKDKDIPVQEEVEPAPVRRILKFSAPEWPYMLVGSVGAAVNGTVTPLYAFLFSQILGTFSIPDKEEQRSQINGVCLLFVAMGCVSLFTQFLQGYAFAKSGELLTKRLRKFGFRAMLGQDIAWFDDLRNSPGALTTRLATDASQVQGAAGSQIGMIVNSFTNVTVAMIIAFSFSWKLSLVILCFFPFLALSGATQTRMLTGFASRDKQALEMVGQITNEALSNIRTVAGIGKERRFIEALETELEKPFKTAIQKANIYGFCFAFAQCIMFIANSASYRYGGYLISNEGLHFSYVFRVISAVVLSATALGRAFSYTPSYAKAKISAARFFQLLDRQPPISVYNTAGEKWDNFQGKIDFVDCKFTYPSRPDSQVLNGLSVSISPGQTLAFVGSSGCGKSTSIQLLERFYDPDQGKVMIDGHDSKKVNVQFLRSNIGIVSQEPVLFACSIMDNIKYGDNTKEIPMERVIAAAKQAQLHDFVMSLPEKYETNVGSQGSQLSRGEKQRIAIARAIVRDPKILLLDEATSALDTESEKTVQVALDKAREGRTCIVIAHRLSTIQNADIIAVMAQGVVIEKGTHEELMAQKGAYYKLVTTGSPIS
- Assay details: Inhibition of human BSEP overexpressed in Sf9 cell membrane vesicles assessed as uptake of [3H]-taurocholate in presence of ATP measured after 15 to 20 mins by membrane vesicle transport assay
pIC50: −log10 of the molar value. Counter-ions that a name gives are not always drawn.
Measurement kind: pIC50

{"columns": ["Compound", "Measurement target", "Result"],
 "data": [
  ["CC(=O)NS(=O)(=O)c1ccc(N)cc1", "Bile salt export pump (Homo sapiens, UniProt O95342)", "< 3.88"],
  ["CC1(C)S[C@@H]2[C@H](NC(=O)[C@H](N)c3ccc(O)cc3)C(=O)N2[C@H]1C(=O)O [AMOXICILLIN]", "Bile salt export pump (Homo sapiens, UniProt O95342)", "< 3.88"],
  ["CCCNC(=O)NS(=O)(=O)c1ccc(Cl)cc1 [CHLORPROPAMIDE]", "Bile salt export pump (Homo sapiens, UniProt O95342)", "< 3.88"],
  ["O=C1OC(OC(=O)c2cccnc2Nc2cccc(C(F)(F)F)c2)c2ccccc21 (stereo not given) [TALNIFLUMATE]", "Bile salt export pump (Homo sapiens, UniProt O95342)", "< 3.88"],
  ["CN1CC(=O)N2[C@H](c3ccc4c(c3)OCO4)c3[nH]c4ccccc4c3C[C@@H]2C1=O", "Bile salt export pump (Homo sapiens, UniProt O95342)", "< 3.88"],
  ["C=CC1=C(C(=O)O)N2C(=O)[C@@H](NC(=O)/C(=N\\OCC(=O)O)c3csc(N)n3)[C@H]2SC1 [CEFIXIME]", "Bile salt export pump (Homo sapiens, UniProt O95342)", "< 3.88"],
  ["Cc1cc(=O)n(-c2ccccc2)n1C [ANTIPYRINE]", "Bile salt export pump (Homo sapiens, UniProt O95342)", "< 3.88"],
  ["CCOC(=O)c1ccc(C#Cc2ccc3c(c2)C(C)(C)CCS3)nc1 [TAZAROTENE]", "Bile salt export pump (Homo sapiens, UniProt O95342)", "< 3.88"],
  ["C=CCCCCCCCCC(=O)O [UNDECYLENIC ACID]", "Bile salt export pump (Homo sapiens, UniProt O95342)", "< 3.88"],
  ["CNCCCN1c2ccccc2CCc2ccccc21 [DESIPRAMINE]", "Bile salt export pump (Homo sapiens, UniProt O95342)", "< 3.88"],
  ["Cc1ncc([N+](=O)[O-])n1CC(O)CCl (stereo not given) [ORNIDAZOLE]", "Bile salt export pump (Homo sapiens, UniProt O95342)", "< 3.88"],
  ["CC(O)(CS(=O)(=O)c1ccc(F)cc1)C(=O)Nc1ccc(C#N)c(C(F)(F)F)c1 (stereo not given) [BICALUTAMIDE]", "Bile salt export pump (Homo sapiens, UniProt O95342)", 4.10],
  ["CC(C)(C#N)c1cc(Cn2cncn2)cc(C(C)(C)C#N)c1 [ANASTROZOLE]", "Bile salt export pump (Homo sapiens, UniProt O95342)", "< 3.88"],
  ["Cc1ccc(-c2ncc(Cl)cc2-c2ccc(S(C)(=O)=O)cc2)cn1 [ETORICOXIB]", "Bile salt export pump (Homo sapiens, UniProt O95342)", 4.27],
  ["O=P1(N(CCCl)CCCl)NCCCO1 (stereo not given) [CYCLOPHOSPHAMIDE ANHYDROUS]", "Bile salt export pump (Homo sapiens, UniProt O95342)", "< 3.88"],
  ["Fc1ccc([C@@H]2CCNC[C@H]2COc2ccc3c(c2)OCO3)cc1 [PAROXETINE HYDROCHLORIDE]", "Bile salt export pump (Homo sapiens, UniProt O95342)", "< 3.88"],
  ["COc1c(C)c2c(c(O)c1C/C=C(\\C)CCC(=O)OCCN1CCOCC1)C(=O)OC2 [MYCOPHENOLATE MOFETIL]", "Bile salt export pump (Homo sapiens, UniProt O95342)", 4.12],
  ["O=C(O)c1ccc(-n2nc(-c3ccccc3O)nc2-c2ccccc2O)cc1 [DEFERASIROX]", "Bile salt export pump (Homo sapiens, UniProt O95342)", 4.23],
  ["Cc1nnc(C(C)C)n1[C@@H]1C[C@H]2CC[C@@H](C1)N2CC[C@H](NC(=O)C1CCC(F)(F)CC1)c1ccccc1 [MARAVIROC]", "Bile salt export pump (Homo sapiens, UniProt O95342)", 3.96],
  ["CC[C@H]1CN2CCc3cc(OC)c(OC)cc3[C@@H]2C[C@@H]1C[C@H]1NCCc2cc(OC)c(OC)cc21 [EMETINE]", "Bile salt export pump (Homo sapiens, UniProt O95342)", "< 3.88"],
  ["Cn1c(=O)c2[nH]cnc2n(C)c1=O [AMINOPHYLLINE]", "Bile salt export pump (Homo sapiens, UniProt O95342)", "< 3.88"],
  ["Nc1nc(=O)[nH]cc1F [FLUCYTOSINE]", "Bile salt export pump (Homo sapiens, UniProt O95342)", "< 3.88"],
  ["COc1cccc2c1C(=O)c1c(O)c3c(c(O)c1C2=O)C[C@@](O)(C(=O)CO)C[C@@H]3O[C@H]1C[C@H](N)[C@@H](O)[C@H](C)O1 [EPIRUBICIN HYDROCHLORIDE]", "Bile salt export pump (Homo sapiens, UniProt O95342)", "< 3.88"],
  ["CCN(CC)CCNC(=O)c1cc(Br)c(N)cc1OC [BROMOPRIDE]", "Bile salt export pump (Homo sapiens, UniProt O95342)", "< 3.88"],
  ["NCC[C@H](O)C(=O)N[C@@H]1C[C@H](N)[C@@H](O[C@H]2O[C@H](CN)[C@@H](O)[C@H](O)[C@H]2O)[C@H](O)[C@H]1O[C@H]1O[C@H](CO)[C@@H](O)[C@H](N)[C@H]1O [AMIKACIN]", "Bile salt export pump (Homo sapiens, UniProt O95342)", "< 3.88"],
  ["COc1ccc2c3c1O[C@H]1C[C@@H](O)C=C[C@@]31CCN(C)C2 [GALANTAMINE]", "Bile salt export pump (Homo sapiens, UniProt O95342)", "< 3.88"],
  ["NC(=O)N1c2ccccc2CC(=O)c2ccccc21 [OXCARBAZEPINE]", "Bile salt export pump (Homo sapiens, UniProt O95342)", "< 3.88"],
  ["C=C1[C@H](CO)[C@@H](O)C[C@@H]1n1cnc2c(=O)[nH]c(N)nc21", "Bile salt export pump (Homo sapiens, UniProt O95342)", "< 3.88"],
  ["C[C@@H]1C/C=C/C=C/C=C/C=C/[C@H](O[C@@H]2O[C@H](C)[C@@H](O)[C@H](N)[C@@H]2O)C[C@@H]2O[C@](O)(C[C@@H](O)C[C@H]3O[C@@H]3/C=C/C(=O)O1)C[C@H](O)[C@H]2C(=O)O [NATAMYCIN]", "Bile salt export pump (Homo sapiens, UniProt O95342)", "< 3.88"],
  ["CCC1(C)CC(=O)NC1=O (stereo not given) [ETHOSUXIMIDE]", "Bile salt export pump (Homo sapiens, UniProt O95342)", "< 3.88"],
  ["Cc1c(C)c2c(c(C)c1O)CCC(C)(COc1ccc(CC3SC(=O)NC3=O)cc1)O2 (stereo not given) [TROGLITAZONE]", "Bile salt export pump (Homo sapiens, UniProt O95342)", 5.52],
  ["CCn1cc(C(=O)O)c(=O)c2cc(F)c(N3CCN(C)CC3)cc21 [PEFLOXACIN]", "Bile salt export pump (Homo sapiens, UniProt O95342)", "< 3.88"],
  ["C[C@@H](O)[C@H]1C(=O)N2C(C(=O)O)=C(SCCN=CN)C[C@H]12", "Bile salt export pump (Homo sapiens, UniProt O95342)", "< 3.88"],
  ["O=C1CCc2cc(OCCCCc3nnnn3C3CCCCC3)ccc2N1 [CILOSTAZOL]", "Bile salt export pump (Homo sapiens, UniProt O95342)", "< 3.88"],
  ["c1ccc2c(c1)OCC(C1=NCCN1)O2 (stereo not given) [IDAZOXAN]", "Bile salt export pump (Homo sapiens, UniProt O95342)", "< 3.88"]
]}
